All values here come from patent US20150344457A1.

# System: Z-138 cells
# run-description: Z-138 Proliferation Assay (Cell Titer Glo, 5 days)
# Format: cell-based
# assay-context: Homo sapiens, Table D-2
# Procedure: Z-138 Proliferation Assay Z-138 suspension cells were purchased from ATCC (American Type Culture Collection, Manassas, Va.). […] SpectraMax M5 plate reader was purchased from Molecular Devices LLC, Sunnyvale, Calif., USA. […] Cell viability was measured by quantitation of ATP present in the cell cultures, adding 35 μl of Cell Titer Glo® reagent to the cell plates. Luminescence was read in the SpectraMax M5 microplate reader. […]
quantity-measured: EC50

The recorded EC50 for "O[C@H](COc1cccc(CNC2CCCC2)c1)CN1CCc2ccccc2C1" is 10 to 40 µM

The compound listed as OC(COc1cccc(-c2cc(OC(F)(F)F)ccc2Cl)c1)CN1CCc2ccccc2C1 (stereo not drawn) shows EC50 equal to > 20 µM

Continuing:
Documented EC50 of CNC(=O)Cn1cnc2ccc(-c3cccc(OCC(O)CN4CCc5ccccc5C4)c3)cc21 (stereo not drawn) : 1 to 10 µM

What the record says about OC(COc1cccc(-c2cccc3cccnc23)c1)CN1CCc2ccccc2C1 (stereo not drawn) : EC50 is 10 to 40 µM

Per the records, this compound ( OC(COc1cccc(-c2ccc3ncn(Cc4ccccc4)c3c2)c1)CN1CCc2ccccc2C1 (stereo not drawn) ) has EC50 equal to 10 to 40 µM

Value of measured EC50 for the entry COC(COc1cccc(CNC2CCCC2)c1)CN1CCc2ccccc2C1 (stereo not drawn) : > 40 µM

Field EC50 (entry OC(COCc1c(Cl)cccc1Cl)CN1CCc2ccccc2C1 (stereo not drawn) ) reads 10 to 40 µM

Recorded result, Cn1cnc2cc(-c3cccc(OCC(O)CN4CCc5ccccc5C4)c3)ccc21 (stereo not drawn) , EC50: 10 to 40 µM

Query CN(Cc1ccc(OCC(O)CN2CCc3ccccc3C2)cc1)C1CCCC1 (stereo not drawn) yields EC50 of > 40 µM

// sample OC(COc1cccc(CNC2CCCC2)c1)CN1CCc2ccccc2C1 (stereo not drawn) [Compound D1] , its EC50 was 10 to 40 µM

Looking up NC(=O)c1cccc(-c2cccc(OCC(O)CN3CCc4ccccc4C3)c2)c1 (stereo not drawn) , I see its EC50 listed as > 20 µM

Given item Cn1ccc2ccc(-c3cccc(OCC(O)CN4CCc5ccccc5C4)c3)cc21 (stereo not drawn) , the value recorded as its EC50 is 10 to 40 µM
